Hey, just so you know, these numbers are from patent US11026942B2.

System: Aβ43
test.description: Aβ43 in FAD1 iPS cell-derived nerve cells (secondary screening)
Format: cell-based, human
Design: scale not given here
Recorded measurements of Aβ43, one per entry

Below, 8 compounds whose answers are already recorded.
{"compound": "CCn1cc(C(=O)O)c(=O)c2cnc(N3CCCC3)nc21", "Aβ43": 0.79}
{"compound": "CN(C)CCOC(c1ccccc1)c1ccccc1 [compound 14, diphenhydramine]", "Aβ43": 0.97}
{"compound": "c1cnc(N2CCN(Cc3ccc4c(c3)OCO4)CC2)nc1", "Aβ43": 1.09}
{"compound": "CN1CCc2cccc3c2[C@H]1Cc1ccc(O)c(O)c1-3", "Aβ43": 1.01}
{"compound": "O=C1CCc2cc(OCCCCc3nnnn3C3CCCCC3)ccc2N1", "Aβ43": 0.82}
{"compound": "CCN(CC)C(=S)SSC(=S)N(CC)CC", "Aβ43": 0.98}
{"compound": "CN(C)CCN(Cc1ccc(Cl)cc1)c1ccccn1", "Aβ43": 0.89}
{"compound": "Cc1c(C(N)=O)cc([N+](=O)[O-])cc1[N+](=O)[O-] [compound 95, DINITOLMIDE]", "Aβ43": 0.98}

The compound identified as "Oc1c(Cl)cc(Cl)cc1Sc1cc(Cl)cc(Cl)c1O" registered its Aβ43 at 0.85

The compound identified as NC(=O)NC1NC(=O)NC1=O (stereo not drawn) registered its Aβ43 at 1.13

The compound identified as "CNC(=C[N+](=O)[O-])NCCSCc1csc(CN(C)C)n1" registered its Aβ43 at 1.15

The compound identified as "O=C(O)COCCN1CCN([C@H](c2ccccc2)c2ccc(Cl)cc2)CC1" registered its Aβ43 at 0.85

The compound identified as CC(C(O)c1ccc(O)cc1)N1CCC(Cc2ccccc2)CC1 (stereo not drawn) registered its Aβ43 at 1.03

The compound identified as "COc1cccc([C@@]2(O)CCCC[C@@H]2CN(C)C)c1" registered its Aβ43 at 1.02

The compound identified as "O=C(O)[C@H]1/C(=C/CO)O[C@@H]2CC(=O)N21" registered its Aβ43 at 0.75

The compound identified as "Oc1ccc(OCc2ccccc2)cc1" registered its Aβ43 at 0.89

The compound identified as CN1[C@@H]2CC[C@@H]1CC(OC(=O)C(O)c1ccccc1)C2 (stereo partly drawn) registered its Aβ43 at 1.09

The compound identified as "Oc1ccc(Cl)cc1Cc1cc(Cl)ccc1O" registered its Aβ43 at 0.87
